System: Pancreatin
protocol-details: Protease stability in simulated intestinal fluid (Pancreatin-SIF, FaSSIF)
Type: in vitro ADME
conditions: 120 min, 1 μM peptide, 37° C., read-out: FaSSIF 120 (min), remaining percent of peptide
Positions of bridges follow the written chain, without caps; N, C: chain ends. Non-standard residues stand in square brackets, D forms with d. Residues, ends and D or L forms follow the SMILES beside them. 2Nal = N[C@@H](Cc1ccc2ccccc2c1)C(=O)O; AEF = NCCOc1ccc(C[C@H](N)C(=O)O)cc1; Aib = CC(C)(N)C(=O)O; Ahx = NCCCCCC(=O)O
outcome-measure: remaining at 2 h, 1 µM (%)
Report the value in % with no unit label.

# return remaining at 2 h, 1 µM of C[C@@H](O)[C@@H]1NC(=O)[C@H](CC(N)=O)NC(=O)[C@@H]2CSSC[C@H](NC(=O)[C@H](CCC(N)=O)NC(=O)[C@H](Cc3c[nH]c4ccccc34)NC1=O)C(=O)N[C@@H](Cc1ccc(OCCN)cc1)C(=O)N[C@@H](Cc1ccc3ccccc3c1)C(=O)NC(C)(C)C(=O)N[C@H](C(=O)N[C@@H](CC(N)=O)C(=O)NCC(N)=O)CC(=O)NCCCCCC(=O)N2 [compound 9] ([Ahx]CNTWQC[AEF][2Nal][Aib]DNG-NH2; disulfide 2-7; lactam N-11) (system: Pancreatin) 100
